# Tested on: Escherichia coli TOP10
# assay_overview: shrunken log2 fold change of peptide-encoding DNA abundance (4.5 h post-induction vs induction); higher = less antimicrobial activity (less host growth inhibition)
# test_settings: time post-induction: 4.5 h; library: site-saturation at positions 5, 18, 19, 20
Kindly supply the reported shrunken log2 fold change values for the records listed here.
Give bare numbers.

>  <seq_string>
RRIRNRPPRLPRPRPRPVQFPRP

>  <observed_value>
-0.124

$$$$

Please state, for each entry, its recorded shrunken log2 fold change.
1. RRIRQRPPRLPRPRPRPLPHPRP
2. RRIRARPPRLPRPRPRPDQDPRP

A)
1: 0.137; 2: 0.605

Please state, for each entry, its recorded shrunken log2 fold change.
1. RRIRVRPPRLPRPRPRPCNIPRP
2. RRIRNRPPRLPRPRPRPTHYPRP

A)
0.0254
-0.109

Please state, for each entry, its recorded shrunken log2 fold change.
1. RRIRQRPPRLPRPRPRPFKIPRP
2. RRIRIRPPRLPRPRPRPKCAPRP

A)
-0.00995
0.0106

Please state, for each entry, its recorded shrunken log2 fold change.
1. RRIRGRPPRLPRPRPRPNVVPRP
2. RRIRGRPPRLPRPRPRPRTFPRP
3. RRIRVRPPRLPRPRPRPTMFPRP
4. RRIRSRPPRLPRPRPRPVPPPRP
5. RRIRMRPPRLPRPRPRPKGRPRP
6. RRIRERPPRLPRPRPRPMYLPRP
7. RRIRSRPPRLPRPRPRPKQKPRP
8. RRIRGRPPRLPRPRPRPNESPRP

A)
1. 0.0631
2. 1.1
3. -0.158
4. 0.329
5. -0.00141
6. -1.99
7. -0.000384
8. 0.302

====

# Tested on: Escherichia coli TOP10;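 note: peptides expressed intracellularly from a pBAD plasmid library in pooled LB shake-flask culture, induced with 0.3% L-arabinose, DNA abundance read by NGS, three biological replicates, DESeq2 with apeglm shrinkage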
# assay_overview: shrunken log2 fold change of peptide-encoding DNA abundance (4.5 h post-induction vs induction); higher = less antimicrobial activity (less host growth inhibition)
# test_settings: time post-induction: 4.5 h; library: site-saturation at positions 5, 18, 19, 20
parameter: shrunken log2 fold change
Answers are plain numbers.

Examples with answers:
>  <seq_string>
RRIRLRPPRLPRPRPRPWKQPRP

>  <shrunken log2 fold change>
-0.0134

$$$$
>  <seq_string>
RRIRNRPPRLPRPRPRPPMRPRP

>  <shrunken log2 fold change>
1.05

$$$$

Please state, for each entry, its recorded shrunken log2 fold change.
1. RRIRDRPPRLPRPRPRPDGDPRP
2. RRIRIRPPRLPRPRPRPSVRPRP
3. RRIRCRPPRLPRPRPRPARNPRP
4. RRIRLRPPRLPRPRPRPVINPRP

A)
1. -0.0107
2. -0.238
3. -0.182
4. -0.686

Please state, for each entry, its recorded shrunken log2 fold change.
1. RRIRSRPPRLPRPRPRPWMMPRP
2. RRIRQRPPRLPRPRPRPEDDPRP

A)
1. -0.165
2. -0.14

Please state, for each entry, its recorded shrunken log2 fold change.
1. RRIRTRPPRLPRPRPRPFRCPRP
2. RRIRYRPPRLPRPRPRPLYIPRP
3. RRIRARPPRLPRPRPRPYIPPRP
4. RRIRFRPPRLPRPRPRPRTVPRP
5. RRIRPRPPRLPRPRPRPWPCPRP
6. RRIRKRPPRLPRPRPRPWAWPRP
7. RRIRHRPPRLPRPRPRPYHYPRP

A)
1: 0.0246; 2: -0.999; 3: -0.805; 4: 0.086; 5: 0.0872; 6: -0.00174; 7: -0.125

Please state, for each entry, its recorded shrunken log2 fold change.
1. RRIRGRPPRLPRPRPRPTMPPRP
2. RRIRARPPRLPRPRPRPSNKPRP
3. RRIRKRPPRLPRPRPRPVHNPRP
4. RRIRSRPPRLPRPRPRPYCMPRP
5. RRIRWRPPRLPRPRPRPFRYPRP
6. RRIRLRPPRLPRPRPRPCMCPRP

A)
1. 0.425
2. -0.31
3. -0.0446
4. -0.881
5. -0.501
6. -0.967
